List of TGR5 Efficacy (%) (10 µM) values.
Target: TGR5 (Homo sapiens, UniProt Q8TDU6)
Construct: host or cells: CHO cells
Sequence (Q8TDU6 whole entry): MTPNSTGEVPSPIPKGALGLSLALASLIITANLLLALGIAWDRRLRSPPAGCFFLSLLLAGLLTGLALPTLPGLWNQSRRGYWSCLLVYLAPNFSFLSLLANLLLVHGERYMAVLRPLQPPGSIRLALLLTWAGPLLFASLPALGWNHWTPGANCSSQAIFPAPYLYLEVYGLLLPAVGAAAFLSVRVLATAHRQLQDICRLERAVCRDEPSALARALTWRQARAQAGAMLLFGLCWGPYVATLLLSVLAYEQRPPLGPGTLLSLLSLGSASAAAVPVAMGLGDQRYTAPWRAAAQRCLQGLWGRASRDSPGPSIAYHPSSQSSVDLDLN
Experiment: TGR5 cAMP assay in CHO cells transfected with TGR5 (cAMP Hunter eXpress, Discover X)
Assay type: cell-based
Conditions: 10 µM; % vs INT-767 10 µM as 100%
reported endpoint: TGR5 Efficacy (%) (10 µM)

In [3]: df
Out[3]:
                                   compound          reported_endpoint  unit_text  measured
0  CN(C)c1ccc(-c2ccc(CN(C(=O)c3ccnnc3)c3cc(Cl)cc(Cl)c3)cc2)cc1 [Compound 13ab]  TGR5 Efficacy (%) (10 µM)          %       -12
1  COC(=O)/C=C/c1cc(Cl)cc(N(Cc2ccc(-c3ccc(N(C)C)cc3)cc2)C(=O)c2ccncc2C)c1 [Compound 13m]  TGR5 Efficacy (%) (10 µM)          %       6.7
2  CN(C)c1ccc(-c2ccc(CN(C(=O)C3CCC(O)CC3)c3cc(Cl)cc(Cl)c3)cc2)cc1 (stereo not shown) [Compound 13ae]  TGR5 Efficacy (%) (10 µM)          %      -1.5
3  CCC1C(O)C2C3CCC(C(C)CCOS(=O)(=O)O)C3(C)CCC2C2(C)CCC(O)CC12 (stereo not shown) [INT-767, reference compound]  TGR5 Efficacy (%) (10 µM)          %       100
4  COc1ccc(C23CCC(CN(C(=O)c4ccncc4C)c4cc(F)cc(Cl)c4)(CC2)CC3)cc1C [Compound 20i]  TGR5 Efficacy (%) (10 µM)          %      62.1
5  Cc1cc(F)ccc1N(Cc1ccc(-c2ccc(N(C)C)cc2)cc1)C(=O)c1ccncc1 [Compound 13f]  TGR5 Efficacy (%) (10 µM)          %      32.0
6  COc1ccc(C23CCC(CN(C(=O)c4ccncc4C)c4cc(Cl)cc(Cl)c4)(CC2)CC3)cc1C [Compound 20f]  TGR5 Efficacy (%) (10 µM)          %      28.8

---

Target: PPAR delta (Homo sapiens, UniProt Q03181)
Construct: Eurofine Cerep / Eurofine Panlabs Discovery Services
Sequence (Q03181 whole entry): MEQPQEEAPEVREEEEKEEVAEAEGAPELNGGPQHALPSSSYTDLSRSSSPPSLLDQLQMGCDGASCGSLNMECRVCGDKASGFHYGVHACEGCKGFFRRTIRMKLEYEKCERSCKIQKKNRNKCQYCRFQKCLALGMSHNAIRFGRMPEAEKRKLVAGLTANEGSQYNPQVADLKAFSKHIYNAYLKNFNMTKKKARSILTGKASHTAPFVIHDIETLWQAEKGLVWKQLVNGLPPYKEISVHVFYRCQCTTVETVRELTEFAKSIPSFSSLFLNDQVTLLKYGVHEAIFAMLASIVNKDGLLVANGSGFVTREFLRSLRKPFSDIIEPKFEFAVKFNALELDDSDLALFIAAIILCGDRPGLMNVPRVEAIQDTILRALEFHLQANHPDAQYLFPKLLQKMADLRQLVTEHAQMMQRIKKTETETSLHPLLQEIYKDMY
Assay: Selectivity, NR functional assay
Conditions: NR functional assay
reported endpoint: EC50

>>> df
                                   compound                              assay_system  measured
0  COc1cc(Cl)cc(N(CC23CCC(c4ccc(OC)c(C#N)c4)(CC2)CC3)C(=O)c2ccncc2C)c1 [Compound 20p]  PPAR delta (Homo sapiens, UniProt Q03181)   > 30 µM

---

Test: Pharmacokinetics in rats
Type: in vivo, Sprague-Dawley rats
Details: Sprague-Dawley, rat, plasma, po, 3mg/kg, n=3, AUC0-24h
reported endpoint: AUC

>>> print(df.to_string())
                                   compound     measured
0  COc1ccc(C23CCC(CN(C(=O)c4ccncc4C)c4cc(Cl)cc(Cl)c4)(CC2)CC3)cc1C#N [Compound 20q]   11 ng·h/mL
1  COc1cc(Cl)cc(N(CC23CCC(c4ccc(OC)c(C#N)c4)(CC2)CC3)C(=O)c2ccncc2C)c1 [Compound 20p]  121 ng·h/mL

---

Molecular target: TGR5 (Homo sapiens)
Construct: host or cells: CHO cells
Assay: TGR5 cAMP assay in CHO cells transfected with TGR5 (cAMP Hunter eXpress, Discover X)
Type: cell-based
Details: 10 µM; % vs INT-767 10 µM as 100%
reported endpoint: TGR5 Efficacy (%) (10 µM)

>>> df
                                   compound  measured
0  CCc1cnccc1C(=O)N(CC12CCC(c3ccc(OC)c(C)c3)(CC1)CC2)c1cc(F)cc(Cl)c1 [Compound 20j]     71.1%
1  Cc1cnccc1C(=O)N(Cc1ccc(-c2ccc(N(C)C)cc2)cc1)c1cc(Cl)ccc1C [Compound 13p]     93.4%
2  COC(=O)/C=C/c1ccc(C)c(N(Cc2ccc(-c3ccc(N(C)C)cc3)cc2)C(=O)c2ccncc2C)c1 [Compound 13h]      0.2%
3  COc1ccc(C23CCC(CN(C(=O)c4ccncc4C)c4cc(Cl)cc(Cl)c4)(CC2)CC3)cc1C#N [Compound 20q]     80.2%

---

Molecular target: FXR (Homo sapiens)
Construct: host or cells: CHO cells
Sequence (Q96RI1 whole entry): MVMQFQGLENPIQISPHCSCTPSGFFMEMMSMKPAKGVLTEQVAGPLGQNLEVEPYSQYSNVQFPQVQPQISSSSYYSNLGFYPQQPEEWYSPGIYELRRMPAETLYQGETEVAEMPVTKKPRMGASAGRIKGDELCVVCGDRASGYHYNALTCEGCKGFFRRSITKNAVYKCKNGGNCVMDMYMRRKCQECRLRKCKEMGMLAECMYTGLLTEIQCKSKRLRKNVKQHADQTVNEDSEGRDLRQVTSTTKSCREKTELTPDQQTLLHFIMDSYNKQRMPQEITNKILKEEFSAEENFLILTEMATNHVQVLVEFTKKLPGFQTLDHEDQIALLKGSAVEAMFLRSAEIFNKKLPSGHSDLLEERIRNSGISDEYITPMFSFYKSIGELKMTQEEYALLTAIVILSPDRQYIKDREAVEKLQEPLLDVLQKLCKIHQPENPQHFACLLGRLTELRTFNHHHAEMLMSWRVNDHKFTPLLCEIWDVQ
Assay: CHO cell-based FXR luciferase reporter assay (Indigo Biosciences)
Conditions: 1 µM; % vs OCA 1 µM as 100%
Attribute: FXR Efficacy (%) (1 µM)
reported endpoint: FXR Efficacy (%) (1 µM)

>>> print(df.to_string())
                                    compound        assay_system        reported_endpoint  measured
 0  Cc1cnccc1C(=O)N(Cc1ccc(-c2ccc(N(C)C)cc2)cc1)c1cc(Cl)cc(-c2cnn(C(C)C)c2)c1 [Compound 13o]  FXR (Homo sapiens)  FXR Efficacy (%) (1 µM)      68.8
 1  Cc1cnccc1C(=O)N(C[C@H]1CC[C@H](c2ccccc2)CC1)c1cc(Cl)cc(Cl)c1 [Compound 20a]  FXR (Homo sapiens)  FXR Efficacy (%) (1 µM)      52.2
 2  COc1ccc(C23CCC(CN(C(=O)c4ccncc4C)c4cc(Cl)cc(Cl)c4)(CC2)CC3)cc1C#N [Compound 20q]  FXR (Homo sapiens)  FXR Efficacy (%) (1 µM)      79.6
 3  COC(=O)/C=C/c1cccc(N(Cc2ccc(-c3ccc(N(C)C)cc3)cc2)C(=O)C2CCCCC2)c1 [Compound 7, Fexaramine, reference compound]  FXR (Homo sapiens)  FXR Efficacy (%) (1 µM)      96.6
 4  Cc1cnccc1C(=O)N(CC12CCC(c3ccc4c(c3)OCCO4)(CC1)CC2)c1cc(Cl)cc(Cl)c1 [Compound 20r]  FXR (Homo sapiens)  FXR Efficacy (%) (1 µM)      72.6
 5  COc1ccc(C23CCC(CN(C(=O)c4ccncc4C)c4cc(Cl)cc(Cl)c4)(CC2)CC3)cc1Cl [Compound 20v]  FXR (Homo sapiens)  FXR Efficacy (%) (1 µM)      79.6
 6  Cc1cc(C)cc(N(Cc2ccc(-c3ccc(N(C)C)cc3)cc2)C(=O)c2ccncc2C)c1 [Compound 13l]  FXR (Homo sapiens)  FXR Efficacy (%) (1 µM)      37.6
 7  COc1ncc(C23CCC(CN(C(=O)c4ccncc4C)c4cc(Cl)cc(Cl)c4)(CC2)CC3)cc1C [Compound 20u]  FXR (Homo sapiens)  FXR Efficacy (%) (1 µM)      76.2
 8  Cc1cc(F)ccc1N(Cc1ccc(-c2ccc(N(C)C)cc2)cc1)C(=O)c1cccnc1 [Compound 13g]  FXR (Homo sapiens)  FXR Efficacy (%) (1 µM)       1.2
 9  Cc1cnccc1C(=O)N(Cc1ccc(-c2ccc(N(C)C)cc2)cc1)c1cc(Cl)cc(Br)c1 [Compound 13k]  FXR (Homo sapiens)  FXR Efficacy (%) (1 µM)      75.9
10  COC(=O)/C=C/c1cccc(N(Cc2ccc(-c3ccc(N(C)C)cc3)cc2)C(=O)c2ccncc2)c1 [Compound 13b]  FXR (Homo sapiens)  FXR Efficacy (%) (1 µM)      16.7
11  COC(=O)/C=C/c1cccc(N(Cc2ccc(-c3ccc(N(C)C)cc3)cc2)C(=O)c2ccncc2C)c1 [Compound 13a]  FXR (Homo sapiens)  FXR Efficacy (%) (1 µM)      24.6
12  COc1cc(Cl)cc(N(CC23CCC(c4ccc5c(c4)OCO5)(CC2)CC3)C(=O)c2ccncc2C)c1 [Compound 20o]  FXR (Homo sapiens)  FXR Efficacy (%) (1 µM)      97.6
13  CN(C)c1ccc(-c2ccc(CN(C(=O)c3ccncc3Cl)c3cc(Cl)cc(Cl)c3)cc2)cc1 [Compound 13x]  FXR (Homo sapiens)  FXR Efficacy (%) (1 µM)      62.1
14  COC(=O)/C=C/c1cccc(N(Cc2ccc(-c3ccc(N(C)C)cc3)cc2)C(=O)c2ccccc2)c1 [Compound 13d]  FXR (Homo sapiens)  FXR Efficacy (%) (1 µM)      24.5
15  CCc1cnccc1C(=O)N(CC12CCC(c3ccc(OC)c(C)c3)(CC1)CC2)c1cc(F)cc(Cl)c1 [Compound 20j]  FXR (Homo sapiens)  FXR Efficacy (%) (1 µM)      71.7
16  Cc1cnccc1C(=O)N(Cc1ccc(-c2ccc(N(C)C)cc2)cc1)c1cccc(-c2cnn(C(C)C)c2)c1C [Compound 13s]  FXR (Homo sapiens)  FXR Efficacy (%) (1 µM)      61.0
17  COC(=O)/C=C/c1cccc(N(Cc2ccc(-c3ccc(N(C)C)cc3)cc2)C(=O)c2ccncc2C)c1F [Compound 13u]  FXR (Homo sapiens)  FXR Efficacy (%) (1 µM)      90.3
18  COc1ccc(C(=O)N(Cc2ccc(-c3ccc(N(C)C)cc3)cc2)c2cc(Cl)cc(Cl)c2)c(Cl)c1 [Compound 13ag]  FXR (Homo sapiens)  FXR Efficacy (%) (1 µM)     136.5
19  Cc1cnccc1C(=O)N(Cc1ccc(-c2ccc(N(C)C)cc2)cc1)c1cc(Cl)ccc1C [Compound 13p]  FXR (Homo sapiens)  FXR Efficacy (%) (1 µM)       1.9
20  Cc1cnccc1C(=O)N(CC12CCC(c3ccc(N(C)C)cc3)(CC1)CC2)c1cc(Cl)cc(Cl)c1 [Compound 20s]  FXR (Homo sapiens)  FXR Efficacy (%) (1 µM)      95.3
21  COC(=O)/C=C/c1ccc(C)c(N(Cc2ccc(-c3ccc(N(C)C)cc3)cc2)C(=O)c2ccncc2C)c1 [Compound 13h]  FXR (Homo sapiens)  FXR Efficacy (%) (1 µM)      25.3
22  Cc1cccc([C@H]2CC[C@H](CN(C(=O)c3ccncc3C)c3cc(Cl)cc(Cl)c3)CC2)c1 [Compound 20c]  FXR (Homo sapiens)  FXR Efficacy (%) (1 µM)      51.7
23  COc1cc(Cl)cc(N(CC23CCC(c4ccc(OC)c(C#N)c4)(CC2)CC3)C(=O)c2ccncc2C)c1 [Compound 20p]  FXR (Homo sapiens)  FXR Efficacy (%) (1 µM)      98.8
24  COc1ccc([C@@H]2CC[C@@H](CN(C(=O)c3ccncc3C)c3cc(Cl)cc(Cl)c3)C(C)C2)cc1C (some centres unmarked) [Compound 20e]  FXR (Homo sapiens)  FXR Efficacy (%) (1 µM)      69.1
25  Cc1cnccc1C(=O)N(C[C@H]1CC[C@H](c2ccc(N(C)C)cc2)CC1)c1cc(Cl)cc(Cl)c1 [Compound 20b]  FXR (Homo sapiens)  FXR Efficacy (%) (1 µM)      47.1
